Assign NORMAL LEUKOCYTE ENZYME ACTIVITY LYMPHS Mean to each entry below.
Test system: lymphocytes
Assay: enzyme activity with fluorogenic substrate, normal lymphocytes (Table 3A)
Type: cell-based, human
One number for each entry.

- compound: "CC(=O)Oc1cc2c(cc1Cl)C(c1ccccc1C(=O)O)c1cc(Cl)c(OC(C)=O)cc1O2 [DCFH-DA MES, reference compound]"
  valueMeasured: 4.11

Give one value of NORMAL LEUKOCYTE ENZYME ACTIVITY LYMPHS Mean per listed compound.
1. CC(=O)Oc1ccc2c(c1)Oc1cc(OC(C)=O)ccc1C21OC(=O)c2ccccc21 [FDA, fluorescein diacetate, reference compound]
2. C[C@H](NC(=O)[C@@H](N)CCCCN)C(=O)Nc1ccc2c(c1)Oc1cc(NC(=O)[C@H](C)NC(=O)[C@@H](N)CCCCN)ccc1C21OC(=O)c2ccccc21 [KA-M, (Lys-Ala)2 Rho 110]

13.38
0.55

----------
Test system: lymphocytes
Assay: aberrant enzyme activities in febrile children, lymphocytes (Table 7)
Format: cell-based, human
Details: P92 Adenitis
Numbered stars: 1 amine (or outer) side, 2 acyl side, 3 side chain; on linkers, the order of the positions; unused ones are H or OH. Bridge positions count the residues as written; N and C are the ends. Peptide text beside a SMILES is read from it. I, II: the chains in the order shown. Rhodamine110 = O=C1OC2(c3ccc(N[*:1])cc3Oc3cc(N[*:2])ccc32)c2ccccc21
Assign aberrant enzyme activity, LYMPHS to each entry below.

Past entries and their recorded results:
- compound: "CC(C)C[C@H](NC(=O)CNC(=O)[C@@H](N)CC(C)C)C(=O)NCC(=O)Nc1ccc2c(c1)Oc1cc(NC(=O)CNC(=O)[C@H](CC(C)C)NC(=O)CNC(=O)[C@@H](N)CC(C)C)ccc1C21OC(=O)c2ccccc21 [LGLG, (H-L-Leu--Gly--Leu--Gly)2 Rho 110 .2TFA] (I: H-LGLG / II: H-LGLG; linker I:C-II:C via Rhodamine110)"
  assayedTarget: "lymphocytes"
  aberrant enzyme activity, LYMPHS: ".smallcircle."
- compound: "NCCCC[C@H](N)C(=O)Nc1ccc2c(c1)Oc1cc(NC(=O)[C@@H](N)CCCCN)ccc1C21OC(=O)c2ccccc21 [LYS, (H-L-Lys)2 Rho 110 .4TFA]"
  assayedTarget: "lymphocytes"
  aberrant enzyme activity, LYMPHS: ".smallcircle."
- compound: "N[C@@H](CC(=O)O)C(=O)Nc1ccc2c(c1)Oc1cc(NC(=O)[C@@H](N)CC(=O)O)ccc1C21OC(=O)c2ccccc21 [ASP, (H-L-Asp)2 --Rho 110 .2TFA]"
  assayedTarget: "lymphocytes"
  aberrant enzyme activity, LYMPHS: ".smallcircle."

Give one value of aberrant enzyme activity, LYMPHS per listed compound.
1. N=C(N)NCCC[C@H](N)C(=O)Nc1ccc2c(c1)Oc1cc(NC(=O)[C@@H](N)CCCNC(=N)N)ccc1C21OC(=O)c2ccccc21 (stereo partly drawn) [ARG, (H-L-Arg)2 Rho 110 .4TFA]
2. C[C@H](NC(=O)[C@@H](N)CCCCN)C(=O)Nc1ccc2c(c1)Oc1cc(NC(=O)[C@H](C)NC(=O)[C@@H](N)CCCCN)ccc1C21OC(=O)c2ccccc21 [KA-M, (Lys-Ala)2 Rho 110]
3. CC(C)[C@H](N)C(=O)N[C@@H](CCCCN)C(=O)Nc1ccc2c(c1)Oc1cc(NC(=O)[C@H](CCCCN)NC(=O)[C@@H](N)C(C)C)ccc1C21OC(=O)c2ccccc21 [VK-M, (Val-Lys)2 Rho 110 (modified)]

.smallcircle.
.smallcircle.
.smallcircle.

----------
System: granulocytes
Experiment: peptidase activity in leukemia and non-leukemia patients, granulocytes (Table 6C)
Type: cell-based, human
Parameters: unit not given here
Conditions: P68 tachycardia
Assign enzyme activity, Grans to each entry below.
Give bare numbers.

- molecule: "CC(C)[C@H](N)C(=O)N[C@@H](CO)C(=O)Nc1ccc2c(c1)Oc1cc(NC(=O)[C@H](CO)NC(=O)[C@@H](N)C(C)C)ccc1C21OC(=O)c2ccccc21 [VS, (H-L-Val--Ser)2 Rho 110 .2TFA]"
  assayedTarget: "granulocytes"
  valueKind: "enzyme activity, Grans"
  valueMeasured: 0.33
- molecule: "NCC(=O)N1CCC[C@H]1C(=O)Nc1ccc2c(c1)Oc1cc(NC(=O)[C@@H]3CCCN3C(=O)CN)ccc1C21OC(=O)c2ccccc21 [GP, (H-Gly--Pro)2 Rho .2TFA]"
  assayedTarget: "granulocytes"
  valueKind: "enzyme activity, Grans"
  valueMeasured: 16.08

Would you kindly look at the next entry?
Kindly state the measured enzyme activity, Grans obtained for C[C@@H](O)[C@H](N)C(=O)N1CCC[C@H]1C(=O)Nc1ccc2c(c1)Oc1cc(NC(=O)[C@@H]3CCCN3C(=O)[C@@H](N)[C@@H](C)O)ccc1C21OC(=O)c2ccccc21 [TP, (H-L-Thr--Pro)2 Rho 110 .2TFA] with granulocytes.
5.63
